Molecular target: U1A E19A:Y13Q (UniProt P09012 10-89, Y13Q;E19A)
Sequence (P09012 10-89 Y13Q/E19A): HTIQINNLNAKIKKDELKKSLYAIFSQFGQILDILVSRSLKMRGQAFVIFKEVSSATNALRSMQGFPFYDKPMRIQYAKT
Assay: fluorescence polarization
measured-parameter: pKd
Keep it numeric: pKd is minus log10 of the concentration in mol/L.

Req: Dear colleague, I am looking for the recorded pKd of the following binder: GGCAGAUCUGAGCCUGGGAGCUCUCUGCC (structured_RNA) [TAR RNA]
Resp: 4.66

Hey, just so you know, these numbers are from paper PMC4414246.
